Ref: paper PMC12686966

assay procedure: Pharmacokinetic study of 10 major BYQZF components in plasma (UPLC-MS/MS)
run parameters: male, C57BL/6J, mouse, plasma, po, 5 g/kg, AUC(0-t), plasma, oral BYQZF 5 g crude drug/kg, group BYQZF (without MPTP), n=6
// NB: equality with 0.3 ng·h/mL counts as Not met; only AUC(0-t) strictly below is Met

Field: below-cutoff. Rule: recorded AUC(0-t) strictly less than 0.3 ng·h/mL. Subject: N[C@@H](CCC(=O)O)C(=O)O Met

Field: below-cutoff. Rule: recorded AUC(0-t) strictly less than 0.3 ng·h/mL. Subject: C[C@@H]1O[C@@H](O[C@@H]2[C@@H](O)[C@H](OCCc3ccc(O)c(O)c3)O[C@H](COC(=O)/C=C/c3ccc(O)c(O)c3)[C@H]2O)[C@H](O)[C@H](O)[C@H]1O [Isoacteoside] Not met

Field: below-cutoff. Rule: recorded AUC(0-t) strictly less than 0.3 ng·h/mL. Subject: O[C@H]1[C@H](O)[C@@H](O)[C@H](O)[C@@H](O)[C@H]1O Not met

Field: below-cutoff. Rule: recorded AUC(0-t) strictly less than 0.3 ng·h/mL. Subject: O=c1cc[nH]c(=O)[nH]1 Not met

Field: below-cutoff. Rule: recorded AUC(0-t) strictly less than 0.3 ng·h/mL. Subject: O=c1c(O)c(-c2ccccc2)oc2ccccc12 [3-Hydroxyflavone] Not met
